- assay system: T1, BMP-12 (UniProt Q7Z4P5 322-450, limits assumed)
- T1 construct: also called BMP12/GDF7
- T1 sequence (looked up): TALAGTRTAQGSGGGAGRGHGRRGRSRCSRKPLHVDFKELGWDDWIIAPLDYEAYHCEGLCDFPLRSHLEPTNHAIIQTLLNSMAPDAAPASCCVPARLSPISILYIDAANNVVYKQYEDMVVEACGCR
- assay comment: peptide resin, filter plate; load 5: 25 mM HEPES pH 7.0
No end group written: not given here.
Listed next: entries and their corresponding Flow-through conc.
Your answer should be a plain number; it is taken to be in mg/mL.

Worked cases, answers included:
>>> test_value("Ac-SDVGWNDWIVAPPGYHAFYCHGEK [BMP2 N-trun peptide 750]")
0.29
>>> test_value("Ac-VAPPGYHAFYSHGEK [BMP2 N-trunc_2 peptide 745]")
0.397
>>> test_value("Ac-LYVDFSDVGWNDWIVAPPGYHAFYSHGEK [BMP2 Full peptide 747]")
0.103

Input line: Query: Flow-through conc; subject: Ac-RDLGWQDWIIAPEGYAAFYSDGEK [BMP5 peptide 748]
Output line: 0.055
